The origin of these recorded values is ChEMBL document CHEMBL3286189.

Tested on: L1210
protocol: Cytostatic activity against mouse L1210 cells assessed as inhibition of cell proliferation after 48 hrs by coulter counting analysis
Format: functional, cell-based
test.conditions: l1210
experimental.endpoint: IC50 (µM)
Unit µM implied. Number only.

// query Note IC50 for the molecule shown: COC(=O)C[C@H](NC(=O)OC(C)(C)C)C(=O)N(Cc1ccccc1)C1(C(=O)NCc2ccccc2)CCN(Cc2ccccc2)C1 (single isomer, unassigned; diastereomer 2)
// result 9

----------
Test system: CCRF-CEM
protocol: Cytostatic activity against human CEM cells assessed as inhibition of cell proliferation after 72 hrs by coulter counting analysis
Type: functional, cell-based
test.conditions: Homo sapiens, CCRF-CEM, 72 h
experimental.endpoint: pIC50
Scale for pIC50: -log10 of concentration given in mol/L; no unit attached.

// worked examples, pIC50 included
{"molecule": "CC(C)(C)OC(=O)N[C@@H](Cc1ccccc1)C(=O)N(Cc1ccccc1)C1(C(=O)NCc2ccccc2)CCN(C(=O)OC(C)(C)C)CC1", "endpoint.value": 5.24}
{"molecule": "CCC(C)N(C(=O)[C@H](CC(=O)OC)NC(=O)OCc1ccccc1)C1(C(=O)NCc2ccccc2)CCN(Cc2ccccc2)CC1 (stereo partly specified)", "endpoint.value": 5.35}
{"molecule": "COC(=O)C[C@H](NC(=O)OC(C)(C)C)C(=O)N(Cc1cc(OC)c(OC)c(OC)c1)C1(C(=O)NCc2ccccc2)CCN(Cc2ccccc2)CC1", "endpoint.value": 4.64}
{"molecule": "C=CCOC(=O)N1CCC(C(=O)NCc2ccccc2)(N(Cc2ccccc2)C(=O)[C@H](Cc2ccccc2)NC(=O)OC(C)(C)C)CC1", "endpoint.value": 5.33}
{"molecule": "CC[C@@H](C)[C@H](NC(=O)OCc1ccccc1)C(=O)N(Cc1ccccc1)C1(C(=O)NCc2ccccc2)CCN(C(=O)OC(C)(C)C)CC1", "endpoint.value": 5.17}

Could you now consider this next molecule?
// query Note pIC50 for the molecule shown: `CC(C)(C)OC(=O)N[C@@H](Cc1ccc(O)cc1)C(=O)N(Cc1ccccc1)C1(C(=O)NCc2ccccc2)CCN(Cc2ccccc2)CC1`
// result 5.28

----------
Known pIC50 of a selection of molecules
System: HeLa
protocol: Cytostatic activity against human HeLa cells assessed as inhibition of cell proliferation after 72 hrs by coulter counting analysis
Type: functional, cell-based
test.conditions: Homo sapiens, HeLa, 72 h
Scale for pIC50: -log10 of concentration given in mol/L; no unit attached.

// query Note pIC50 for the molecule shown: `CNC(=O)C[C@H](NC(=O)OC(C)(C)C)C(=O)N(Cc1ccccc1)C1(C(=O)NCc2ccccc2)CCN(Cc2ccccc2)CC1`
// result 4.08

// query Note pIC50 for the molecule shown: `C=CCOC(=O)N1CCC(C(=O)NCc2ccccc2)(N(Cc2ccccc2)C(=O)[C@H](CC(=O)OC)NC(=O)OC(C)(C)C)CC1`
// result 3.97

// query Note pIC50 for the molecule shown: `COC(=O)C[C@H](NC(=O)OCc1ccccc1)C(=O)N(Cc1ccccc1)C1(C(=O)NCc2ccccc2)CCN(Cc2ccccc2)CC1`
// result 4.85

// query Note pIC50 for the molecule shown: CCC(C)N(C(=O)[C@@H](N)Cc1ccccc1)C1(C(=O)NCc2ccccc2)CCN(Cc2ccccc2)CC1 (some centres not stated)
// result 4.05

// query Note pIC50 for the molecule shown: `COC(=O)C[C@H](NC(=O)OC(C)(C)C)C(=O)N(Cc1ccccc1)C1(C(=O)NCc2ccccc2)CCN(Cc2ccccc2)CC1`
// result 4.70

// query Note pIC50 for the molecule shown: `COC(=O)C[C@H](NC(=O)OC(C)(C)C)C(=O)N(C1CC1)C1(C(=O)NCc2ccccc2)CCN(Cc2ccccc2)CC1`
// result 5.10

// query Note pIC50 for the molecule shown: `CC(C)(C)OC(=O)N[C@@H](Cc1c[nH]c2ccccc12)C(=O)N(Cc1ccccc1)C1(C(=O)NCc2ccccc2)CCN(Cc2ccccc2)CC1`
// result 5.23

----------
System: HeLa
protocol: Cytostatic activity against human HeLa cells assessed as inhibition of cell proliferation after 72 hrs by coulter counting analysis
Format: functional, cell-based
test.conditions: Homo sapiens, HeLa, 72 h
Known pIC50 of a selection of compounds
Scale for pIC50: -log10 of concentration given in mol/L; no unit attached.

// worked examples, pIC50 included
{"compound": "COC(=O)C[C@H](NC(=O)OCC1c2ccccc2-c2ccccc21)C(=O)N(Cc1ccccc1)C1(C(=O)NCc2ccccc2)CCN(Cc2ccccc2)CC1", "target.or.test.system": "HeLa", "pIC50": 4.85}
{"compound": "CC(C)(C)OC(=O)N[C@@H](Cc1ccccc1)C(=O)N(Cc1ccccc1)C1(C(=O)NCc2ccccc2)CCN(Cc2ccccc2)CC1", "target.or.test.system": "HeLa", "pIC50": 5.38}

// query // output pIC50; input `CC(C)(C)OC(=O)N1CCC[C@H]1C(=O)N(Cc1ccccc1)C1(C(=O)NCc2ccccc2)CCN(Cc2ccccc2)CC1` ; system HeLa
// result 3.86

// query // output pIC50; input CCC(C)N(C(=O)[C@H](Cc1ccccc1)NC(=O)OC(C)(C)C)C1(C(=O)NCc2ccccc2)CCN(Cc2ccccc2)CC1 (stereo partly specified) ; system HeLa
// result 4.62

// query // output pIC50; input `COC(=O)C[C@H](NC(=O)OC(C)(C)C)C(=O)N(Cc1ccc(F)cc1)C1(C(=O)NCc2ccccc2)CCN(Cc2ccccc2)CC1` ; system HeLa
// result 4.72

// query // output pIC50; input COC(=O)C[C@H](NC(=O)OC(C)(C)C)C(=O)N(Cc1ccccc1)C1(C(=O)NCc2ccccc2)CCN(Cc2ccccc2)C1 (single isomer, unassigned; diastereomer 2) ; system HeLa
// result 4.74

----------
Test system: CCRF-CEM
protocol: Cytostatic activity against human CEM cells assessed as inhibition of cell proliferation after 72 hrs by coulter counting analysis
Assay type: functional, cell-based
test.conditions: Homo sapiens, CCRF-CEM, 72 h
Known IC50 of a selection of compounds
Unit µM implied. Number only.

// worked examples, IC50 included
{"compound": "COC(=O)C[C@H](NC(=O)OCC1c2ccccc2-c2ccccc21)C(=O)N(Cc1ccccc1)C1(C(=O)NCc2ccccc2)CCN(Cc2ccccc2)CC1", "u": "µM", "IC50": 5.2}
{"compound": "O=C(N[C@@H](Cc1ccccc1)C(=O)N(Cc1ccccc1)C1(C(=O)NCc2ccccc2)CCN(Cc2ccccc2)CC1)Oc1ccccc1", "u": "µM", "IC50": 9}
{"compound": "CCC(C)N(C(=O)[C@H](CC(=O)OC)NC(=O)OC(C)(C)C)C1(C(=O)NCc2ccccc2)CCN(Cc2ccccc2)CC1 (some centres not stated)", "u": "µM", "IC50": 19}

// query Note IC50 for the compound shown: `COC(=O)C[C@H](N)C(=O)N(Cc1ccccc1)C1(C(=O)NCc2ccccc2)CCN(Cc2ccccc2)CC1`
// result 104

// query Note IC50 for the compound shown: `COC(=O)C[C@H](NC(=O)OC(C)(C)C)C(=O)N(Cc1ccccc1)C1(C(=O)NCc2ccccc2)CCN(C(=O)OC(C)(C)C)CC1`
// result 21

----------
Test system: CCRF-CEM
protocol: Cytostatic activity against human CEM cells assessed as inhibition of cell proliferation after 72 hrs by coulter counting analysis
Type: functional, cell-based
test.conditions: Homo sapiens, CCRF-CEM, 72 h
experimental.endpoint: pIC50
Scale for pIC50: -log10 of concentration given in mol/L; no unit attached.

{"molecule": "C=CCOC(=O)N1CCC(C(=O)NCc2ccccc2)(N(Cc2ccccc2)C(=O)[C@@H](N)Cc2ccccc2)CC1", "pIC50": 4.27}
{"molecule": "COC(=O)C[C@H](NC(=O)OC(C)(C)C)C(=O)N(C)C1(C(=O)NCc2ccccc2)CCN(Cc2ccccc2)CC1", "pIC50": 4.70}
{"molecule": "CC(C)(C)NC(=O)C1(N(C(=O)[C@H](Cc2ccccc2)NC(=O)OC(C)(C)C)C2CC2)CCN(C(=O)OC(C)(C)C)CC1", "pIC50": 4.72}
{"molecule": "CCC(C)N(C(=O)[C@H](Cc1ccccc1)NC(=O)OC(C)(C)C)C1(C(=O)NCc2ccccc2)CCN(Cc2ccccc2)CC1 (some centres undefined)", "pIC50": 5.00}
{"molecule": "COC(=O)C[C@H](NC(=O)OC(C)(C)C)C(=O)N(CCNc1ccccc1)C1(C(=O)NCc2ccccc2)CCN(Cc2ccccc2)CC1", "pIC50": 4.85}
{"molecule": "CCCCNC(=O)C1(N(Cc2ccccc2)C(=O)[C@H](CC(=O)OC)NC(=O)OC(C)(C)C)CCN(Cc2ccccc2)CC1", "pIC50": 4.55}
{"molecule": "CNC(=O)C[C@H](NC(=O)OC(C)(C)C)C(=O)N(Cc1ccccc1)C1(C(=O)NCc2ccccc2)CCN(Cc2ccccc2)CC1", "pIC50": 4.20}
{"molecule": "CCC(C)N(C(=O)[C@@H](N)CC(=O)OC)C1(C(=O)NCc2ccccc2)CCN(Cc2ccccc2)CC1 (some centres undefined)", "pIC50": 3.62}

// query Note pIC50 for the molecule shown: COC(=O)C[C@H](NC(=O)OC(C)(C)C)C(=O)N(Cc1ccccc1)C1(C(=O)NCc2ccccc2)CCN(Cc2ccccc2)C1 (single isomer, unassigned; diastereomer-1)
// result 4.72

// query Note pIC50 for the molecule shown: `CC(C)(C)OC(=O)N[C@@H](CC(N)=O)C(=O)N(Cc1ccccc1)C1(C(=O)NCc2ccccc2)CCN(Cc2ccccc2)CC1`
// result 4.59

// query Note pIC50 for the molecule shown: `COC(=O)CNC(=O)C1(N(Cc2ccccc2)C(=O)[C@H](CC(=O)OC)NC(=O)OC(C)(C)C)CCN(Cc2ccccc2)CC1`
// result 3.96

// query Note pIC50 for the molecule shown: `CC[C@H](C)[C@H](NC(=O)OC(C)(C)C)C(=O)N(Cc1ccccc1)C1(C(=O)NCc2ccccc2)CCN(Cc2ccccc2)CC1`
// result 5.15

// query Note pIC50 for the molecule shown: `CC(C)(C)OC(=O)N[C@@H](Cc1c[nH]c2ccccc12)C(=O)N(Cc1ccccc1)C1(C(=O)NCc2ccccc2)CCN(Cc2ccccc2)CC1`
// result 5.23
